System: L1210 leukemia ip in BDF1 mice, survival T/C
Test: NCI In Vivo Anticancer Drug Screen. Data for tumor model L1210 Leukemia (intraperitoneal) in B6D2F1 (BDF1) mice
Details: endpoint: mean survival time; dose: 100.0 mg/kg/injection; schedule: Q01DX001 (ip); vehicle: carboxymethylcellulose (CMC); higher = longer survival
Inconclusive results and toxic doses are left out.
recorded-metric: T/C

• O=C(Nc1cccc(Cl)c1)Nc1cc(C(F)(F)F)ccc1Cl = 100 % of control
• CC(=O)C(C)C(=O)c1cc(C)c(Br)s1 (stereo not drawn) = 94 % of control
• COc1ccc(C2=C(c3ccccc3)C(c3ccccc3)=C(c3ccc(OC)cc3)C2=O)cc1 = 89 % of control
• CCOC(=O)C1CC2(c3ccccc3)C(=O)C1(c1ccccc1)C(c1ccccc1)=C2c1ccccc1 (stereo not drawn) = 94 % of control
• CCCCCCCCCCCCCCCN(CCCl)CCCl = 93 % of control
• Cc1nc(N)[nH]c(=O)c1/C=C\C(=O)c1ccccc1 = 95 % of control
• CC(=O)Nc1ccc(NC(=O)c2ccc([As](O)O)cc2)cc1 = 107 % of control
• CCCCCCCCCCCCCCCCCBr = 95 % of control
• O=C1/C(=C\C=C\c2ccccc2)CCCC/C1=C\C=C\c1ccccc1 = 90 % of control
• CCc1ccc(N=Nc2ccccc2)cc1 = 105 % of control
• CCN(CC)c1ccc(Sc2ccc([N+](=O)[O-])cc2[N+](=O)[O-])cc1 = 88 % of control
• CNC(=O)O/N=C(/C)c1ccc(Cl)cc1 = 93 % of control
• Cc1ccc(S(=O)(=O)C(CC(=O)O)c2ccccc2)cc1 (stereo not drawn) = 88 % of control
• CCCCCCC(C1CCCCC1)C1CCCCC1 = 86 % of control
• NC(=O)c1ncn(C2OC(CO)C(O)C2O)c1C(N)=O (stereo not drawn) = 104 % of control
• COc1cc(N(CCCl)CCCl)c(OC)cc1/C=N/NC(=O)CC(N)C(=O)O (stereo not drawn) = 115 % of control
• O=C1c2cc(Br)ccc2-c2c(Cl)cc(Br)cc21 = 105 % of control
• O=C(O)CCC(c1ccccc1)(c1ccccc1)c1ccccc1 = 95 % of control
